# Measured on: T1, labeled peptide-MHC (HLA-A*02:01) tetramer (…-HLA-A*02:01 tetramer) (human)
# T1 construct: Labeled tetramer used for flow cytometry staining; also called pMHC; pMHC tetramer
# Assay protocol: tetramer staining of sorted T cell clones, flow cytometry
Reported endpoint: binding result

{"Binder": "nwTCR-3272 (TCR, V domains shown, TCR on T cells) V domain 1: QKEVEQNSGPLSVPEGAIASLNCTYSDRGSQSFFWYRQYSGKSPELIMSIYSNGDKEDGRFTAQLNKASQYVSLLIRDSQPSDSATYLCAVPSGNMLTFGGGTRLMVKP V domain 2: DVKVTQSSRYLVKRTGEKVFLECVQDMDHENMFWYRQDPGLGLRLIYFSYDVKMKEKGDIPEGYSVSREKKERFSLILESASTNQTSMYLCASSSATSGSGEQYFGPGTRLTVTE", "Reported endpoint": "binding result", "Recorded result": "binds"}
{"Binder": "nwTCR-2228 (TCR, V domains shown, TCR on T cells) V domain 1: QKEVEQNSGPLSVPEGAIASLNCTYSDRGSQSFFWYRQYSGKSPELIMFIYSNGDKEDGRFTAQLNKASQYVSLLIRDSQPSDSATYLCAGHTGNQFYFGTGTSLTVIP V domain 2: EPEVTQTPSHQVTQMGQEVILRCVPISNHLYFYWYRQILGQKVEFLVSFYNNEISEKSEIFDDQFSVERPDGSNFTLKIRSTKLEDSAMYFCASREDGYEQYFGPGTRLTVTE", "Reported endpoint": "binding result", "Recorded result": "binds"}
{"Binder": "nwTCR-2170 (TCR, V domains shown, TCR on T cells) V domain 1: GQQLNQSPQSMFIQEGEDVSMNCTSSSIFNTWLWYKQDPGEGPVLLIALYKAGELTSNGRLTAQFGITRKDSFLNISASIPSDVGIYFCAGQASGTYKYIFGTGTRLKVLA V domain 2: EAQVTQNPRYLITVTGKKLTVTCSQNMNHEYMSWYRQDPGLGLRQIYYSMNVEVTDKGDVPEGYKVSRKEKRNFPLILESPSPNQTSLYFCASSSGTSDEQYFGPGTRLTVTE", "Reported endpoint": "binding result", "Recorded result": "binds"}
